Exercise: for every item that follows, state its recorded % viability (SFV screen).
Tested on: HeLa Kyoto cells
Conditions: 10 µM
Please reply with the bare figure in % and do not write the unit itself.

Given item C=CCN1CC[C@]23c4c5ccc(O)c4O[C@@H]2/C(=N/N=C2\CC[C@@]4(O)C6Cc7ccc(O)c8c7[C@@]4(CCN6CC=C)[C@@H]2O8)CC[C@@]3(O)C1C5.Cl.Cl [Naloxonazine dihydrochloride] , the value recorded as its % viability (SFV screen) is 87.36

Given item "CCOC(=O)N1CCN(/[N+]([O-])=N/Oc2ccc([N+](=O)[O-])cc2[N+](=O)[O-])CC1" , the value recorded as its % viability (SFV screen) is 66.74

Given item Cl.Cl.Fc1ccc(C(OCCN2CCN(CCCc3ccccc3)CC2)c2ccc(F)cc2)cc1 [GBR 12909 dihydrochloride] , the value recorded as its % viability (SFV screen) is 90.30

Given item "O=[N+]([O-])c1ccc2c(c1)S(=O)(=O)C=C2" , the value recorded as its % viability (SFV screen) is 64.89

Given item "Cc1ccc(S(=O)(=O)N[C@@H](Cc2ccccc2)C(=O)CCl)cc1" , the value recorded as its % viability (SFV screen) is 95.24

Given item CCSc1ccc2c(c1)N(CCCN1CCN(C)CC1)c1ccccc1S2.O=C(O)CC(O)C(=O)O.O=C(O)CC(O)C(=O)O [Thiethylperazine dimalate] , the value recorded as its % viability (SFV screen) is 92.47

Given item Cl.Cn1c(CCCC(=O)O)nc2cc(N(CCCl)CCCl)ccc21 [Bendamustine hydrochloride] , the value recorded as its % viability (SFV screen) is 76.50

Given item "CC(=O)/C=C1\C(=O)N(C)c2ccccc21" , the value recorded as its % viability (SFV screen) is 69.48
